- tgt: AChE (from bovine erythrocytes) (Bos taurus, UniProt P23795)
- Construct: 0.02 unit AChE (Sigma Chemical Co. from bovine erythrocytes); purchased Sigma Chemical Co; host or cells: bovine erythrocytes (natural source)
- Sequence (P23795 other isoform, or with tags, fused parts or gaps): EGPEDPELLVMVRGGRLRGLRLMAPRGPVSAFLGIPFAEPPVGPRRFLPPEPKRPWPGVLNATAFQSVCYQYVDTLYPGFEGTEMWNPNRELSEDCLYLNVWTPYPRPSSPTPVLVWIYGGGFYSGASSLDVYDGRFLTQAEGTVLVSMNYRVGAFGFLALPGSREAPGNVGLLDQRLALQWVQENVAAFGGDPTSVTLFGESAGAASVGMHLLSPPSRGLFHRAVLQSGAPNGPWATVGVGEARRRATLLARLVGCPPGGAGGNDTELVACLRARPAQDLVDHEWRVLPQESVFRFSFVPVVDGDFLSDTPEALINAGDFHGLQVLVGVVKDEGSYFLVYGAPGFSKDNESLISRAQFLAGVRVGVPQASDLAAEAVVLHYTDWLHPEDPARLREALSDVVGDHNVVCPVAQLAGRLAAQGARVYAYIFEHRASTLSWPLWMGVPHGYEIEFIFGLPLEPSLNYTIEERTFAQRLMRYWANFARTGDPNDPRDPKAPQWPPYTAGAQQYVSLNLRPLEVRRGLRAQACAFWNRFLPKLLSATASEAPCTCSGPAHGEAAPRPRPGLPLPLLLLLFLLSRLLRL
- assay.name: biochemical
- Format: biochemical
- measurement.conditions: AChE from bovine erythrocytes, 30° C., pH 8; read-out: IC50 AChE
- Method: Acetylcholinesterase (AChE) Inhibition (from Bovine Erythrocytes) AChE inhibitory activity was evaluated at 30° C. by the colorimetric method reported by Ellman [Ellman, G. L.; Courtney, K. D.; Andres, B.; Featherstone, R. M. Biochem. Pharmacol. 1961, 7, 88-95]. […]
A collection of molecules and their measured IC50

In [3]: df
Out[3]:
                                   molecule  recorded_value
0  O=C(NCCCCCCCCNc1c2c(nc3cc(Cl)ccc13)CCCC2)c1c[nH]c2ccccc12 [Compound 13]           46 nM
1  O=C(CCCc1c[nH]c2ccccc12)NCCCCCCNc1c2c(nc3cc(Cl)ccc13)CCCC2 [Compound 16]         0.48 nM

INPUT: What value of IC50 has been reported for the following molecule? O=C(NCCCCCCCNc1c2c(nc3cc(Cl)ccc13)CCCC2)c1n[nH]c2ccccc12 [Compound 21]
OUTPUT: 95 nM

INPUT: What IC50 value was documented for this molecule, O=C(CCc1c[nH]c2ccccc12)NCCCCCCCCNc1c2c(nc3cc(Cl)ccc13)CCCC2 [Compound 5] ?
OUTPUT: 0.5 nM

INPUT: Which IC50 reading was recorded for the molecule CN(CCCNC(=O)CCc1c[nH]c2ccccc12)CCCNc1c2c(nc3cc(Cl)ccc13)CCCC2 [Compound 9] ?
OUTPUT: 2.88 nM

INPUT: Please look up its IC50: O=C(CCc1c[nH]c2ccccc12)NCCCCCCNc1c2c(nc3cc(Cl)ccc13)CCCC2 [Compound 3]
OUTPUT: 0.02 nM

INPUT: Which IC50 is listed for CN(CCCNC(=O)CCc1c[nH]c2ccccc12)CCCNc1c2c(nc3ccccc13)CCCC2 [Compound 8] ?
OUTPUT: 147 nM

INPUT: Please look up its IC50: O=C(NCCCCCCNc1c2c(nc3cc(Cl)ccc13)CCCC2)c1c[nH]c2ccccc12 [Compound 11]
OUTPUT: 33 nM
